Data provenance is ChEMBL document CHEMBL3862042.

- target_or_system: Phosphatidylinositol 4,5-bisphosphate 3-kinase catalytic subunit delta isoform (Homo sapiens)
- Sequence (O00329 whole entry, canonical isoform): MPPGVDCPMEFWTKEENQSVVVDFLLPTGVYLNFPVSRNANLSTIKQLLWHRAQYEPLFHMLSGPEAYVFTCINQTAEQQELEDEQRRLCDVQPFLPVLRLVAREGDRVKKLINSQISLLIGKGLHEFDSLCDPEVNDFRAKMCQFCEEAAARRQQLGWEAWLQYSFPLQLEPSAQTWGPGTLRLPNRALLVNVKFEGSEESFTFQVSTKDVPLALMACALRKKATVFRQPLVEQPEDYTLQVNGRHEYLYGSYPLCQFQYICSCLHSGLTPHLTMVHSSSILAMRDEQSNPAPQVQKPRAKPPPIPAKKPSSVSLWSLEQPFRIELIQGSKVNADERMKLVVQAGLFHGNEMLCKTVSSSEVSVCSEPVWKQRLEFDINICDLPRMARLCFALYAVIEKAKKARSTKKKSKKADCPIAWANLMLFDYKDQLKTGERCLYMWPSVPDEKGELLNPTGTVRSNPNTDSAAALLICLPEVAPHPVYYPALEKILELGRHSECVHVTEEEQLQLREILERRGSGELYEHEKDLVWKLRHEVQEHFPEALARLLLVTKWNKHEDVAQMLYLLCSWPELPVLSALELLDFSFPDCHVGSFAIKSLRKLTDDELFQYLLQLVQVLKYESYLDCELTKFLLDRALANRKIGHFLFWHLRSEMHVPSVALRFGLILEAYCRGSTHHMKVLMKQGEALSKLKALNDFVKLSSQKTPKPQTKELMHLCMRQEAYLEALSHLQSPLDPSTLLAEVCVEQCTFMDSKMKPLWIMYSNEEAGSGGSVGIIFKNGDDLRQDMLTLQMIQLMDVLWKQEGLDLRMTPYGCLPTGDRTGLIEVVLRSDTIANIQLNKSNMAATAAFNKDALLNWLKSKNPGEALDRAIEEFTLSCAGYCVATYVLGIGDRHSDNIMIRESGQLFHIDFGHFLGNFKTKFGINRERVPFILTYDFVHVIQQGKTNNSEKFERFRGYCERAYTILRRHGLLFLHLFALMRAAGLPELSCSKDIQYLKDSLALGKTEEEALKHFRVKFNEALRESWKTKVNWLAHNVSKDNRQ
- measurement_protocol: Inhibition of PI3Kdelta (unknown origin) by ADP-Glo kinase assay
readout_name: IC50

Request: Quick one: IC50 for "CCc1cc(CNc2cc(Cl)nn3c(-c4ccc(OC)c(S(=O)(=O)NCCO)c4)c(C)nc23)ccn1" ?
Response: < 10 µM

###

- measurement_protocol: Cytotoxicity against human HeLa cells incubated for 3 days by MTT assay
- Type: toxicity, cell-based
Criterion: CC50 at 72 h strictly less than 30 µM. Met: TRUE. Not met: FALSE.

Request: Would you kindly verify if CC50 at 72 h of CCC(CO)NS(=O)(=O)c1cc(-c2c(C)nc3c(NCCNC(C)=O)cc(Cl)nn23)ccc1OC (stereo not given) is strictly less than 30 µM?
Response: FALSE

Request: How about "CCc1cc(CNc2cc(Cl)nn3c(-c4cccc(S(=O)(=O)N(C)C)c4)c(C)nc23)ccn1" ?
Response: TRUE

Request: How about CCc1cc(CNc2cc(Cl)nn3c(-c4ccc(OC)c(S(=O)(=O)NC(CC)CO)c4)c(C)nc23)ccn1 (stereo not given) ?
Response: TRUE

Request: How about "COc1ccc(-c2c(C)nc3c(NCCNC(C)=O)cc(Cl)nn23)cc1S(=O)(=O)N1CCC(CO)CC1" ?
Response: FALSE

Request: How about "CCc1cc(CNc2cc(Cl)nn3c(-c4ccc(OC)c(S(=O)(=O)n5cccn5)c4)c(C)nc23)ccn1" ?
Response: FALSE

Request: How about "COc1ccc(-c2c(C)nc3c(NCCNC(C)=O)cc(Cl)nn23)cc1S(=O)(=O)N(C)C" ?
Response: FALSE

Request: How about "CCc1cc(CNc2cc(Cl)nn3c(-c4ccc(OC)c(S(=O)(=O)NCCOC)c4)c(C)nc23)ccn1" ?
Response: TRUE

Request: How about "COc1ccc(-c2c(C)nc3c(NCCNC(C)=O)cc(Cl)nn23)cc1S(=O)(=O)N1CCOCC1" ?
Response: FALSE

Request: How about "CCc1cc(CNc2cc(Cl)nn3c(-c4ccc(OC)c(S(=O)(=O)NCCN(C)C)c4)c(C)nc23)ccn1" ?
Response: TRUE

Request: How about "CCc1cc(CNc2cc(Cl)nn3c(-c4ccc(OC)c(S(=O)(=O)N5CCOCC5)c4)c(C)nc23)ccn1" ?
Response: TRUE

Request: How about CCc1cc(CNc2cc(Cl)nn3c(-c4ccc(OC)c(S(=O)(=O)NC5CCC(N)CC5)c4)c(C)nc23)ccn1 (stereo not given) ?
Response: TRUE

Request: How about "C=CCNS(=O)(=O)c1cc(-c2c(C)nc3c(NCc4ccnc(CC)c4)cc(Cl)nn23)ccc1OC" ?
Response: TRUE

Request: How about "C=CCNS(=O)(=O)c1cc(-c2c(C)nc3c(NCCNC(C)=O)cc(Cl)nn23)ccc1OC" ?
Response: FALSE

Request: How about "CCc1cc(CNc2cc(Cl)nn3c(-c4ccc(OC)c(S(=O)(=O)N5CCC(O)CC5)c4)c(C)nc23)ccn1" ?
Response: TRUE

Request: How about "CCc1cc(CNc2cc(Cl)nn3c(-c4ccc(OC)c(S(=O)(=O)NCCO)c4)c(C)nc23)ccn1" ?
Response: TRUE

###

- System: Hepatitis C virus
- measurement_protocol: microbe, parasite or virus in culture
- assay_conditions: genotype 1b, Huh-7, 72 h
pEC50: −log10 of the molar value.
Please use rule met whenever pEC50 is not below 6, and rule not met whenever it is.

Request: Confirm if pEC50 reported for the compound CCc1cc(CNc2cc(Cl)nn3c(-c4ccc(OC)c(S(=O)(=O)NC(CC)CO)c4)c(C)nc23)ccn1 (configuration not stated) is 6 or above.
Response: rule met

Request: How about "COc1ccc(-c2c(C)nc3c(NCCNC(C)=O)cc(Cl)nn23)cc1S(=O)(=O)N(C)C" ?
Response: rule met

Request: How about "COc1ccc(-c2c(C)nc3c(NCCNC(C)=O)cc(Cl)nn23)cc1S(=O)(=O)N1CCC(CO)CC1" ?
Response: rule not met

Request: How about CCC(CO)NS(=O)(=O)c1cc(-c2c(C)nc3c(NCCNC(C)=O)cc(Cl)nn23)ccc1OC (configuration not stated) ?
Response: rule not met

Request: How about "CCc1cc(CNc2cc(Cl)nn3c(-c4ccc(OC)c(S(=O)(=O)NCCOC)c4)c(C)nc23)ccn1" ?
Response: rule met
